test system: off-target genomic sites; assay: Off-target oligo insertion based assay in HEK293_Cas9 cells, dgRNAs and sgRNAs (Tables 23, 24); format: cell-based, human; settings: Table 30; TTR sgRNAs, HekCas9 cells, repeated from Example 5 for comparison
Strand notation (5' to 3'): a small letter for the sugar, then the base; units joined by * are phosphorothioate-linked, units joined directly phosphodiester-linked; [ ] holds rarer units or linkages, { } end groups; capitals alone tell only the bases. m = 2'-O-methyl; r = 2'-OH (RNA)
Below, each of the molecules is paired with its reported # Sites in HekCas9 cells (Example 5) value.
Number, no unit, nothing else.

Here are 2 molecules together with their reported answers.
>>> reported("G000483: TTR sgRNA modified sequence, Human, SEQ ID No. 90; guide sequence of CR005298 (nucleic acid) guide: mU*mC*mC*rArCrUrCrArUrUrCrUrUrGrGrCrArGrGrArGrUrUrUrUrArGrAmGmCmUmAmGmAmAmAmUmAmGmCrArArGrUrUrArArArArUrArArGrGrCrUrArGrUrCrCrGrUrUrArUrCrAmAmCmUmUmGmAmAmAmAmAmGmUmGmGmCmAmCmCmGmAmGmUmCmGmGmUmGmCmU*mU*mU*mU")
5
>>> reported("G000500: TTR sgRNA modified sequence, Human, SEQ ID No. 107; guide sequence of CR003337 (nucleic acid) guide: mC*mC*mA*rGrUrCrCrArGrCrArArGrGrCrArGrArGrGrGrUrUrUrUrArGrAmGmCmUmAmGmAmAmAmUmAmGmCrArArGrUrUrArArArArUrArArGrGrCrUrArGrUrCrCrGrUrUrArUrCrAmAmCmUmUmGmAmAmAmAmAmGmUmGmGmCmAmCmCmGmAmGmUmCmGmGmUmGmCmU*mU*mU*mU")
46

Please turn your attention to the following entry.
Prompt line: Write down # Sites in HekCas9 cells (Example 5) measured for item G000495: TTR sgRNA modified sequence, Human, SEQ ID No. 102; guide sequence of CR003343 (nucleic acid) guide: mC*mA*mG*rArGrGrArCrArCrUrUrGrGrArUrUrCrArCrGrUrUrUrUrArGrAmGmCmUmAmGmAmAmAmUmAmGmCrArArGrUrUrArArArArUrArArGrGrCrUrArGrUrCrCrGrUrUrArUrCrAmAmCmUmUmGmAmAmAmAmAmGmUmGmGmCmAmCmCmGmAmGmUmCmGmGmUmGmCmU*mU*mU*mU
Response line: 13

The measurements presented in this section are drawn from patent US11795460B2.
